# MEASUREMENT TARGET: human Mac-1 (integrin αMβ2, CD11b/CD18) (human, UniProt P11215 17-1152; P05107 23-769)
# EXPERIMENT DESCRIPTION: flow cytometry, HEK293/Mac-1 cells (clone 1-4), PBS (Mock)
QUANTITY: Mock MFI (MFI)
Please reply with the bare figure in MFI and do not write the unit itself.

Example cases with answers are listed next.
BINDER | Mock MFI, MFI
anti-Mac-1 antibody clone 27G04 (antibody, human IgG4, V domains shown) VH: QVKLQESGPELVKPGASVKISCKASGYSFTDYNMNWVKQSNGKSLEWIGVINPNYGTTSYNQKFKGKATLTVDQSSSTAYMQLNSLTSEDSAVYYCARTFDYDDDAFAYWGQGTTVTVSS VL: DIELTQSPAIMSASPGEKVTITCSASSSVSDMHWYQQKSGTSPKRWIYDTSKLASGVPARFSGSGSGTSYSLTISNMEAEDAATYYCQQWSSNPPTFGAGTKLELK | 43100
anti-Mac-1 antibody clone 28D06 (antibody, human IgG4, V domains shown) VH: QVKLQQSGPELVKPGASVKISCKASGYSFTDYNMNWVKQSNGKSLEWIGEINPNYGTTRYNQKFKGKATLTVDQSSSTAYMQLNSLTSEDSAVYYCARPSIYYDYDDAMDYWGQGTTVTVSS VL: DIELTQSPAIMSASPGEKVTMTCSASSSVNYMYWYQQKPGSSPRLLIYDTSNLASGVPVRFSGSGSGTSYSLTISRMEAEDAATYYCQQWITYPPTLTFGAGTKLEIK | 51800

Please examine the following record next.
Problem: Item anti-Mac-1 antibody clone 27A04 (antibody, human IgG4, V domains shown) VH: QVKLQQSGPELVKPGASVKISCKASGYSFTDYNMNWVKQSNGKSLEWIGVINPNYGTTSYNQKFKGKATLTVDQSSSTAYMQLNSLTSEDSAVYYCARTYDYDGDAFAYWGQGTTVTVSS VL: DIELTQSPAIMSASPGEKVTMTCSASSSVSYMHWYQQKSGTSPKRWIYDTSKLASGVPARFSGSGSGTSYSLTISSMEAEDAATYYCQQWSSNPPTFGAGTKLELK has what recorded Mock MFI?
Result: 36100
